biological target: UniProtKB P07237; assay: surface plasmon resonance; format: binding
Sequence (P07237 18-508): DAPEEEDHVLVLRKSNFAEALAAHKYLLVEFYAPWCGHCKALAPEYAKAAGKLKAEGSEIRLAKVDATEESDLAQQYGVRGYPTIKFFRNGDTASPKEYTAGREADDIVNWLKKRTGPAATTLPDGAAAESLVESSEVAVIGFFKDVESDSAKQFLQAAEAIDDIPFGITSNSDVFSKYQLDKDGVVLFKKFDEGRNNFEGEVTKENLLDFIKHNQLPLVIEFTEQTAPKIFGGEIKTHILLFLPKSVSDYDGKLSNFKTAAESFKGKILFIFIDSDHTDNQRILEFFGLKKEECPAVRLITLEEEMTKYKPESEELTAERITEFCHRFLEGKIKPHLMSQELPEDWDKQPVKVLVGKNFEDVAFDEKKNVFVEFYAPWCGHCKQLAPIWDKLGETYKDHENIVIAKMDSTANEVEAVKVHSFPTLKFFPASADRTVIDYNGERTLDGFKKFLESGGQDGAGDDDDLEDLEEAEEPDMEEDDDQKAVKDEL
pKd: −log10 of the molar value.

[
  {
    "SMILES INPUT": "Cc1c(-c2ccc(O)cc2)n(Cc2ccc(OCCN3CCCCCC3)cc2)c2ccc(O)cc12",
    "pKd": 8.48
  }
]
